Tested on: MDA-MB-435
ASSAY_OVERVIEW: NCI tumour cell line growth inhibition, 48 h
Active and inactive are the calls of the source. No stated cut-off is given here; in the data, active = GI50 up to about 1.1 µM and inactive = higher.
API: response.call in active, inactive

Past entries and their recorded results:
COMPOUND: CC[C@@]1(O)C(=O)OCc2c1cc1n(c2=O)Cc2c-1nc1ccccc1c2/C=N\NC(=O)C(N)CCSC (some centres undefined)
CATEGORY: active

COMPOUND: Cc1cn([C@@H]2C[C@H]2CO)c(=O)[nH]c1=O
CATEGORY: inactive

COMPOUND: NC(=O)[N+](=CC(=S)Nc1ccccc1Cl)C(N)=O
CATEGORY: inactive

Next:
Ask: Which result was noted for this compound in the test: `CSC1=N/C(=C\c2ccc(C)cc2)C(=O)N1CN1CCOCC1`
Result: inactive

---

Tested on: UACC-62
ASSAY_OVERVIEW: NCI tumour cell line growth inhibition, 48 h
The source made the active and inactive calls. Rule as the data show it: active = GI50 up to about 1.1 µM and inactive = higher.
ATTRIBUTE_MEASURED: GI50

Please review the following examples before continuing.
COMPOUND: O=[N+]([O-])c1cc2ccc(N(CCO)CCO)nc2nc1N(CCO)CCO
ATTRIBUTE_MEASURED: GI50
RESULT: > 100 µM (inactive)
//
COMPOUND: O=[N+]([O-])C(=C(N1CCCCC1)N1CCCCC1)/C(Cl)=C(\Cl)Br
ATTRIBUTE_MEASURED: GI50
RESULT: 10.7 µM (inactive)
//
COMPOUND: CCc1ccccc1NNc1cc(=O)[nH]c(=O)[nH]1
ATTRIBUTE_MEASURED: GI50
RESULT: 19.6 µM (inactive)
//
COMPOUND: O=C(NCCCCNCCCNC(=O)OCc1ccccc1)OCc1ccccc1
ATTRIBUTE_MEASURED: GI50
RESULT: 17.9 µM (inactive)
//
COMPOUND: CSc1nc(NC(C)C)c2c(n1)Sc1nc3ccccc3n1N=C2
ATTRIBUTE_MEASURED: GI50
RESULT: 6.62 µM (inactive)
//
COMPOUND: Cc1cc(C)c2cc(N)c(Cl)nc2n1
ATTRIBUTE_MEASURED: GI50
RESULT: > 100 µM (inactive)
//
COMPOUND: CCCCCCCCCC1CC(=O)NCC(=O)NC(C(C)C)C(=O)NC(CC(C)C)C(=O)NC(C)C(=O)NC(C(C)C)C(=O)O1 (stereo not drawn)
ATTRIBUTE_MEASURED: GI50
RESULT: 25.1 µM (inactive)

Please look at the following compound next.
Ask: Query: GI50; subject: `CC1=C(Cl)C[C@@H](/C(C)=C\Cl)O[C@@]1(O)C(Br)Br`
Result: 45.2 µM (inactive)

---

Tested on: SK-MEL-5
ASSAY_OVERVIEW: NCI tumour cell line growth inhibition, 48 h
Calls of active or inactive are those of the source. No stated cut-off is given here; in the data, active = GI50 up to about 1.1 µM and inactive = higher.
API: response.call in TRUE for active, FALSE for inactive

Past entries and their recorded results:
COMPOUND: O=[N+]([O-])/C(C(Cl)=C(Cl)Cl)=C(/Cl)Sc1ccccc1
EXPERIMENTAL_SYSTEM: SK-MEL-5
CATEGORY: FALSE
--
COMPOUND: O=C(O)CN(c1ccc(F)cc1)S(=O)(=O)c1ccccc1
EXPERIMENTAL_SYSTEM: SK-MEL-5
CATEGORY: FALSE
--
COMPOUND: O=C1/C(=C/c2ccc(Cl)cc2)N=C(c2ccccc2)N1c1nc2ccccc2s1
EXPERIMENTAL_SYSTEM: SK-MEL-5
CATEGORY: FALSE
--
COMPOUND: C#CCNC(CSSCC(N)C(=O)O)C(=O)O (stereo unspecified)
EXPERIMENTAL_SYSTEM: SK-MEL-5
CATEGORY: FALSE

Ask: Which result was noted for this compound in the test: `N#Cc1cc2cc3c4c(c2oc1=O)CCCN4CCC3`
Result: FALSE
